# Target Entity: BTYR (intracellular TYR of B16F10 cells) (Mus musculus)
# Construct: The lysates, called BTYR, were centrifuged at 12,000 rpm for 10 min at 4 °C; endogenous in cells
# Sequence (P11344 19-533): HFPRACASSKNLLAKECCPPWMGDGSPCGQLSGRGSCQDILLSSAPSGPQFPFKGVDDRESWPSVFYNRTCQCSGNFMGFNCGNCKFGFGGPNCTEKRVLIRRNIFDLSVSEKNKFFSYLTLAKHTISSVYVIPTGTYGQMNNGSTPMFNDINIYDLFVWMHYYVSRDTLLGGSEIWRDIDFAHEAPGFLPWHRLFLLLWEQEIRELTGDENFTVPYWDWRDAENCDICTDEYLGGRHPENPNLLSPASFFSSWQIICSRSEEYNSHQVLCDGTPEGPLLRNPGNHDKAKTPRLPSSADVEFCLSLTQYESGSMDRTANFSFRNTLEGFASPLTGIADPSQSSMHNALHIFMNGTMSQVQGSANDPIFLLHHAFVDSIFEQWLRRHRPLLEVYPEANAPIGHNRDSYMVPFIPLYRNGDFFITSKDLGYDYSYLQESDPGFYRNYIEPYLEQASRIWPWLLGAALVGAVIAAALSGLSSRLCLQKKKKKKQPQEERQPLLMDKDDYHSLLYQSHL
# Test Name: BTYR indirectly inhibitory activity in cells cultured by compounds
# Assay Setup: cells cultured with compound 48 h, then TYR extracted
pIC50: −log10 of the molar value.
Value Kind: pIC50

{"columns": ["Compound", "Target Entity", "Value Kind", "Assay Result"],
 "data": [
  ["O=C(O[C@@H]1Cc2c(O)cc(O)cc2O[C@@H]1c1cc(O)c(O)c(O)c1)c1cc(O)c(O)c(O)c1 [EGCG, Epigallocatechin gallate]", "BTYR (intracellular TYR of B16F10 cells) (Mus musculus)", "pIC50", 3.71]
]}
